Please respond with reported IC50 for every item in the list.
- assaySystem: SARS‐CoV‐2 PL^pro (Severe acute respiratory syndrome coronavirus 2)
- procedureSummary: biochemical
- condition: 0.2 μM PL^pro, 2.0 μM nsp2/3 peptide 2, 50 mM Tris pH 8.0; n=2, mean±SD; read-out: SPE‐MS IC50

Worked cases, answers included:
Kindly note: SARS‐CoV‐2 PL^pro (Severe acute respiratory syndrome coronavirus 2), `CC(C)(F)C[C@H](N[C@@H](c1ccc(-c2ccc(S(C)(=O)=O)cc2)cc1)C(F)(F)F)C(=O)NC1(C#N)CC1` , IC50 value reported: > 50 µM

Kindly note: SARS‐CoV‐2 PL^pro (Severe acute respiratory syndrome coronavirus 2), `CCOC(=O)C[C@H](NC(=O)[C@H](C)NC(=O)[C@@H](NC(=O)OCc1ccccc1)C(C)C)C(=O)COC(=O)c1c(Cl)cccc1Cl` , IC50 value reported: > 50 µM

Continue with the next compound.
Kindly note: SARS‐CoV‐2 PL^pro (Severe acute respiratory syndrome coronavirus 2), `COc1cc2ncnc(Nc3ccc(F)c(Cl)c3)c2cc1NC(=O)/C=C/CN1CCCCC1` , IC50 value reported: > 50 µM

---

- assaySystem: SARS‐CoV‐2 PL^pro (Severe acute respiratory syndrome coronavirus 2, UniProt P0DTD1)
- procedureSummary: biochemical
measureName: PL^pro inhibition in SPE‐MS assay (in words)

What the record says about `CN(C)C/C=C/C(=O)Nc1cc2c(Nc3ccc(F)c(Cl)c3)ncnc2cc1O[C@H]1CCOC1` : PL^pro inhibition in SPE‐MS assay (in words) is inactive

What the record says about `COc1cc2ncnc(Nc3ccc(F)c(Cl)c3)c2cc1NC(=O)/C=C/CN1CCCCC1` : PL^pro inhibition in SPE‐MS assay (in words) is inactive

What the record says about `CCOC(=O)C[C@H](NC(=O)[C@H](C)NC(=O)[C@@H](NC(=O)OCc1ccccc1)C(C)C)C(=O)COC(=O)c1c(Cl)cccc1Cl` : PL^pro inhibition in SPE‐MS assay (in words) is does not inhibit

What the record says about `CC(C)(F)C[C@H](N[C@@H](c1ccc(-c2ccc(S(C)(=O)=O)cc2)cc1)C(F)(F)F)C(=O)NC1(C#N)CC1` : PL^pro inhibition in SPE‐MS assay (in words) is does not inhibit

---

- assaySystem: SARS‐CoV‐2 PL^pro (Severe acute respiratory syndrome coronavirus 2)
- procedureSummary: biochemical
- condition: SPE‐MS IC50
measureName: IC50

Value sought for every listed molecule: IC50.
1. Cc1cc(O)c2c(=O)c3c(O)cc(O)c4c5c(O)cc(O)c6c(=O)c7c(O)cc(C)c8c1c2c(c34)c(c78)c65
2. CN(C)C/C=C/C(=O)Nc1cc2c(Nc3ccc(F)c(Cl)c3)ncnc2cc1O[C@H]1CCOC1

Ans:
> 50 µM
> 50 µM

What the record says about COCCn1c2c([n+](Cc3cnccn3)c1C)C(=O)c1ccccc1C2=O [YM‐155, sepantronium bromide] : IC50 is > 50 µM
